Listed next: entries and their corresponding Plant response rating, Bromegrass, Downy.
System: downy bromegrass
Assay: Test C postemergence herbicide test
Assay type: in vivo, Bromus tectorum
Conditions: postemergence; 62 g ai/ha; scale 0 to 100
Text: […]
Kindly provide the number alone.

Known Plant response rating, Bromegrass, Downy results, listed for orientation:
C=CCN(CC=C)C(=O)c1ccc(F)c(NC(=O)c2cc(C(C)(C)C)nn2CC)c1	40
C#CCOc1cccc(NC(=O)c2cc(C(C)(C)C)nn2CC)c1	40
CCc1nn(C(C)(C)C)nc1C(=O)Nc1cccc(C(=O)NC2CC2)c1	35

Return Plant response rating, Bromegrass, Downy measured with downy bromegrass given this molecule: "Cc1nn(C(C)(C)C)nc1C(=O)Nc1cccc(C(=O)N(C)C)c1"
45

---

Tested on: goosegrass
Test: Test C pre-/postemergence herbicide test
Assay type: in vivo, Eleusine indica
Settings: 250 g ai/ha; scale 0-100; preemergence
Entries and their measured Plant response rating, Goosegrass follow.
Please give the numeric answer without any surrounding text.

Some compounds with known Plant response rating, Goosegrass results, for comparison:
CCNC(=O)c1cccc(NC(=O)c2nn(C(C)(C)CC)nc2CC)c1	100
CCn1nc(C(C)(C)C)cc1C(=O)Nc1cncc(C(=O)N(C)C)n1	100
CCN1N=C(C(C)(C)C)CC1C(=O)Nc1cc(C(=O)N2CCCC2)ccc1F (racemic)	100

Tell me reported Plant response rating, Goosegrass for "CCn1nc(C(C)(C)C)cc1C(=O)Nc1cc(C(=O)N2CCCC2)ccc1F" , tested with goosegrass.
100

---

Here the recorded Plant response rating, Foxtail, Giant is given for each entry.
Test system: giant foxtail
Experiment: Test B pre-/postemergence herbicide test
Type: in vivo, Setaria faberi
Conditions: 500 g ai/ha; visual rating 0-100, 0 no effect, 100 complete control; preemergence
Please respond with just the number, no unit label.

Worked cases, answers included:
CCn1nc(C(C)(C)C)cc1C(=O)Nc1cccc(S(C)(=O)=O)c1	40
C=CCOC(=O)c1cccc(NC(=O)c2cc(C(C)(C)C)nn2CC)c1C	30
CC(=NO)c1cccc(NC(=O)c2cc(C(C)(C)C)nn2CC(F)(F)F)c1	20

Then this molecule:
So what does the record say about Plant response rating, Foxtail, Giant for "CCn1nc(C(C)(C)C)cc1C(=O)Nc1cccc(C(=O)N(C)CC#N)n1" ?
100

---

Test system: giant foxtail
Assay: Test B pre-/postemergence herbicide test
Assay type: in vivo, Setaria faberi
Settings: postemergence, 500 g ai/ha; scale 0 to 100, 0 is no effect, 100 is complete control
Simple rule here: Foxtail, Giant plant response rating less than 20 is t, otherwise f.

The following compounds have reported results that may help.
CCc1nn(C(C)(C)CC)nc1C(=O)Nc1cccc(C(=O)N(C)C)c1	f
CCN(C)C(=O)c1cc(NC(=O)c2cc(C(C)(C)C)nn2CC)c(F)cc1F	t
CCNC(=O)c1cccc(NC(=O)c2cc(C(C)(C)C)n[nH]2)c1	t
CCNC(=O)c1cccc(NC(=O)c2nn(C(C)(C)CC)nc2CC)c1	f
CCn1nc(C(C)(C)C)cc1C(=O)Nc1cncc(C(=O)NCC(F)(F)F)n1	f
CCn1nc(C(C)(C)C)cc1C(=O)Nc1cc(C(=O)N2CCCC2)ccc1F	f

Consider the additional compound presented here.
Quick check: Foxtail, Giant plant response rating of "CCOC(=O)c1ccc(F)c(NC(=O)c2cc(C3(C)CC3)nn2CC)c1" under 20?
f
